Assay procedure: acute toxicity, 50 percent lethal dose (LD50), graphical method
Setup conditions: mouse, in vivo, ip, intraperitoneal; Table III; read-out: TOXICITY intraperitoneal
LD50 reference
Experimental endpoint: LD50 (mg/kg)

>>> experimental_result("COC(=O)C1CC(=O)n2c3c(c4cc(Cl)ccc42)CCNC31 (stereo not shown)")
760
>>> experimental_result("COC(=O)[C@@H]1CC(=O)n2c3c(c4cc(Cl)ccc42)CCN[C@H]31 (relative stereo) [Compound 58 trans-isomer]")
170
>>> experimental_result("COC(=O)[C@@H]1CC(=O)n2c3c(c4cc(F)ccc42)CCN(C)[C@@H]31 (relative stereo) [Compound 60 cis-isomer]")
725
>>> experimental_result("COC(=O)[C@@H]1CC(=O)n2c3c(c4ccccc42)CCN(C)[C@H]31 (relative stereo) [Compound 1 trans m.s.]")
185
>>> experimental_result("Cc1ccc2c(c1)c1c3n2C(=O)CCC3NCC1 (stereo not shown)")
155
>>> experimental_result("CC(=O)CCN1CCc2c3n(c4ccc(Cl)cc24)C(=O)CCC31 (stereo not shown)")
575
>>> experimental_result("O=C1CCC2NCCc3c2n1c1ccc(F)cc31 (stereo not shown)")
100
>>> experimental_result("COC(=O)[C@@H]1CC(=O)n2c3c(c4ccccc42)CCN(CCC(C)=O)[C@@H]31 (relative stereo) [Compound 49 m.s.cis]")
600
>>> experimental_result("Cc1ccc2c3c4n(c2c1)C(=O)CCC4N(C)CC3 (stereo not shown)")
88
>>> experimental_result("COC(=O)CCN1CCc2c3n(c4ccccc24)C(=O)CCC31 (stereo not shown)")
680
>>> experimental_result("COC(=O)[C@@H]1CC(=O)n2c3c(c4cc(Cl)ccc42)CCN[C@@H]31 (relative stereo) [Compound 58 cis-isomer]")
190
>>> experimental_result("O=C1CCC2NCCc3c2n1c1cccc(Cl)c31 (stereo not shown)")
54
>>> experimental_result("CC(O)CN1CCc2c3n(c4ccccc24)C(=O)CCC31 (single isomer, unassigned) [Compound 63 isomer A]")
125
